# credit: patent US11873298B2

Listed molecules paired with reported Emax
test system: yeast strains expressing the human ApoE4; assay: Yeast ApoE4 toxicity rescue assay (OD600 growth); conditions: 24 h, read-out: ApoE4 Emax
RESULT TYPE: Emax (%)

INSERT INTO results (molecule, measurement) VALUES
  ('COc1ccc(-c2noc(C3CCN(C(=O)CNC(=O)c4ccc(C)c(C)c4)CC3)n2)cc1 [compound 16]', 418),
  ('COc1ccc(-c2noc(C3CCN(C(=O)[C@@H]4CC(=O)N(c5ccc(C)c(C)c5)C4)CC3)n2)cc1OC [compound 68]', 775),
  ('COc1ccc(-c2noc(C3CCN(C(=O)[C@@H]4CC(=O)N(c5ccc(C)c(C)c5)C4)CC3)n2)cc1 (single isomer, unassigned) [Compound 63]', 250),
  ('COc1ccc(-c2noc(C3CCN(C(=O)CNC(=O)C4CCCCC4)CC3)n2)cc1OC [Compound 48]', 874),
  ('COc1ccc(-c2noc(C3CCN(C(=O)CNC(=O)c4ccc(C)cc4)CC3)n2)cc1OC [compound 13]', 837),
  ('COc1ccc(-c2noc(C3CCN(C(=O)[C@H]4CC(=O)N(c5ccc(C)c(C)c5)C4)CC3)n2)cc1 [Compound 64]', 330),
  ('COc1cccc(-c2noc(C3CCN(C(=O)C4CC(=O)N(c5ccc(C)c(C)c5)C4)CC3)n2)c1 (stereo not drawn) [compound 21]', 447),
  ('COc1ccc(-c2coc(C3CCN(C(=O)CNC(=O)c4ccccc4)CC3)n2)cc1OC [Compound 37]', 849),
  ('CC(C)c1ccc(C(=O)N2CCC(c3nc(-c4cccc(F)c4)no3)CC2)cc1 [compound 8]', 111),
  ('CCOc1ccc(-c2noc(N3CCC(C(=O)N4CCCC(c5ccccc5)C4)CC3)n2)cc1OC (stereo not drawn) [compound 100]', 651),
  ('COc1ccc(-c2noc(C3CCN(C(=O)[C@H](C)NC(=O)c4ccccc4)CC3)n2)cc1OC (single isomer, unassigned) [Compound 59]', 47),
  ('COc1ccc(-c2noc(C3CCN(C(=O)CNC(=O)c4ccc(C)c(C)c4)CC3)n2)cc1OC [compound 15]', 866),
  ('O=C(NCC(=O)N1CCC(c2nc(-c3ccc(Cl)c(Cl)c3)no2)CC1)c1ccccc1 [compound 23]', 466),
  ('O=C(NCC(=O)N1CCC(c2nc(-c3cccc(F)c3)no2)CC1)c1ccccc1 [Compound 42]', 399),
  ('COc1ccc(-c2noc(C3CCN(C(=O)C4CC(=O)N(c5ccccc5)C4)CC3)n2)cc1OC (stereo not drawn) [compound 18]', 826);

* * *

tested on: yeast strains expressing the human ApoE4; test: Yeast ApoE4 toxicity rescue assay (OD600 growth); conditions: 24 h, read-out: ApoE4 Emax
RESULT TYPE: Emax

INSERT INTO results (compound, measurement) VALUES
  ('CCOc1ccc(-c2noc(C3CCN(C(=O)C4CC(=O)N(c5ccccc5)C4)CC3)n2)cc1OC (stereo not shown) [compound 84]', '866%'),
  ('COc1ccc(-c2noc(C3CCN(C(=O)CNC(=O)c4ccccc4)CC3)n2)cc1OC [Compound 7]', '782%'),
  ('Cc1cccc(-c2nc(C3CCN(C(=O)[C@@H]4CC(=O)N(c5ccc(C)c(C)c5)C4)CC3)no2)c1 (single isomer, unassigned) [compound 74]', '411%'),
  ('COc1ccc(-c2noc(C3CCN(C(=O)N4CCCCC4)CC3)n2)cc1OC [Compound 54]', '240%');
